The reported numbers originate from patent US11059845B2.

molecular target: human TLR2 (Homo sapiens, UniProt O60603); construct: host or cells: recombinant HEK-293-TLR cell lines (hTLR2, NFkB-SEAP reporter); experiment: TLR2 reporter assay (HEK-293-TLR, SEAP); type: cell-based; conditions: 20 μM; SEAP reporter optical density
Sequence (O60603 21-784): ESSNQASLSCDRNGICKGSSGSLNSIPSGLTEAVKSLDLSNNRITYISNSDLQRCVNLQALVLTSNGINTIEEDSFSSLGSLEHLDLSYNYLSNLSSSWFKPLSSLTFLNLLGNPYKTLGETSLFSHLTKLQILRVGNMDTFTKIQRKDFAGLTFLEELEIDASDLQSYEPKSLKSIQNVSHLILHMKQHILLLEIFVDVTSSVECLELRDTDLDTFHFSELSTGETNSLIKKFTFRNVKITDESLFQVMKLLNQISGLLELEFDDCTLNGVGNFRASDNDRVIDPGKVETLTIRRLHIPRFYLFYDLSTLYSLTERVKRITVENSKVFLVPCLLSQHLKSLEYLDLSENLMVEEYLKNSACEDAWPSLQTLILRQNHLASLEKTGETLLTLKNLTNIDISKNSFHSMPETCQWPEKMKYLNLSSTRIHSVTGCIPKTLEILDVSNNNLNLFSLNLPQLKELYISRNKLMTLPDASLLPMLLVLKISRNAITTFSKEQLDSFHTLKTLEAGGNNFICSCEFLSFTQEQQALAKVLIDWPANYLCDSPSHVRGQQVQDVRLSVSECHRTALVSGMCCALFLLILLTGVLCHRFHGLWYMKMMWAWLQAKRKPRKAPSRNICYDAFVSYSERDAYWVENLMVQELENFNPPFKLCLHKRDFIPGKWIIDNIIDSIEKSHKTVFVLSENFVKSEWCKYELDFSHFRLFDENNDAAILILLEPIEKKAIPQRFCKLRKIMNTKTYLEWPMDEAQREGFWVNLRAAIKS
Assay Readout: OD after addition of 20 μM test article
Numbers only.

# count of solved cases: 4
CC[C@H]1OC(=O)[C@H](C)[C@@H](O[C@H]2C[C@@](C)(OC)[C@@H](O)[C@H](C)O2)[C@H](C)[C@@H](O[C@@H]2O[C@H](C)C[C@H](N(C)C)[C@H]2O)[C@](C)(O)C[C@@H](C)C(=O)[C@H](C)[C@@H](O)[C@]1(C)O [Erythromycin, reference compound] ... 0.045
CC[C@H]1OC(=O)[C@H](C)[C@@H](O[C@H]2C[C@@H](N(C)C)[C@H](O)[C@@H](C)O2)[C@H](C)[C@@H](O)[C@](C)(O)C[C@@H](C)CN(C)[C@H](C)[C@@H](O)[C@]1(C)O ... 0.458
CC[C@H]1OC(=O)[C@H](C)[C@@H](O[C@H]2CC(N(C)C)[C@H](O)C(C)O2)[C@H](C)[C@@H](O)[C@](C)(O)C[C@@H](C)C(=O)[C@H](C)[C@@H](O)[C@H]1C (some centres unmarked) ... −0.026
CC[C@H]1OC(=O)[C@H](C)[C@@H](O[C@H]2C[C@@](C)(OC)[C@@H](O)[C@H](C)O2)[C@H](C)[C@@H](O[C@@H]2O[C@H](C)C[C@H](N(C)C)[C@H]2O)[C@](C)(O)C[C@@H](C)CN(C)[C@H](C)[C@@H](O)[C@]1(C)O [Azithromycin, reference compound] ... 0.031

Shift focus to the following entry.
[Q] Look up OD after addition of 20 μM test article with human TLR2 (Homo sapiens, UniProt O60603) for this molecule: CC[C@H]1OC(=O)[C@H](C)[C@@H](O[C@H]2CC(N(C)C)[C@H](O)C(C)O2)[C@H](C)[C@@H](O)[C@](C)(O)C[C@@H](C)N(C)C[C@H](C)[C@@H](O)[C@]1(C)O (some centres unmarked)
[A] 0.234

###

molecular target: human TLR2 (Homo sapiens); construct: host or cells: recombinant HEK-293-TLR cell lines (hTLR2, NFkB-SEAP reporter); experiment: TLR2 reporter assay (HEK-293-TLR, SEAP); format: cell-based; settings: 10 μM; SEAP reporter optical density
Rule: Satisfied for OD after addition of 10 μM test article not less than 0.07, Not satisfied for anything less.

[Q] Please indicate if the recorded OD after addition of 10 μM test article for CC[C@H]1OC(=O)[C@H](C)[C@@H](O[C@H]2C[C@@](C)(OC)[C@@H](O)[C@H](C)O2)[C@H](C)[C@@H](O[C@@H]2O[C@H](C)C[C@H](N(C)C)[C@H]2O)[C@](C)(O)C[C@@H](C)C(=O)[C@H](C)[C@@H](O)[C@]1(C)O [Erythromycin, reference compound] meets or exceeds 0.07.
[A] Not satisfied

[Q] Is the recorded value of OD after addition of 10 μM test article equal to or greater than 0.07 for this compound? CC[C@H]1OC(=O)[C@H](C)[C@@H](O[C@H]2CC(N(C)C)[C@H](O)C(C)O2)[C@H](C)[C@@H](O)[C@](C)(O)C[C@@H](C)C(=O)[C@H](C)[C@@H](O)[C@H]1C (some centres unmarked)
[A] Not satisfied

[Q] Does OD after addition of 10 μM test article meet or surpass 0.07 for CC[C@H]1OC(=O)[C@H](C)[C@@H](O[C@H]2CC(N(C)C)[C@H](O)C(C)O2)[C@H](C)[C@@H](O)[C@](C)(O)C[C@@H](C)N(C)C[C@H](C)[C@@H](O)[C@]1(C)O (some centres unmarked) ?
[A] Satisfied

[Q] Check this compound for OD after addition of 10 μM test article at or above 0.07: CC[C@H]1OC(=O)[C@H](C)[C@@H](O[C@H]2C[C@@H](N(C)C)[C@H](O)[C@@H](C)O2)[C@H](C)[C@@H](O)[C@](C)(O)C[C@@H](C)CN(C)[C@H](C)[C@@H](O)[C@]1(C)O
[A] Satisfied

[Q] In plain terms: is recorded OD after addition of 10 μM test article at least 0.07 for CC[C@H]1OC(=O)[C@H](C)[C@@H](O[C@H]2C[C@@](C)(OC)[C@@H](O)[C@H](C)O2)[C@H](C)[C@@H](O[C@@H]2O[C@H](C)C[C@H](N(C)C)[C@H]2O)[C@](C)(O)C[C@@H](C)CN(C)[C@H](C)[C@@H](O)[C@]1(C)O [Azithromycin, reference compound] ?
[A] Not satisfied
